# assay-explanation: RP, Waters CORTECS UPLC C18, 100 × 2.1 mm, 1.6 µm, 40 °C, 0.4 mL/min, estimated dead time 0.55 min; A: water + 0.1% formic acid, pH 3; B: acetonitrile + 0.1% formic acid, pH 3; gradient (min/%B) 0/5 1.12/5 6.41/99.5 10.01/99.5
# test-context: stereoisomer not certain
Kindly supply the reported LC retention time values for the records listed here.
// note: answer is a bare numeric in min

Query block: Recorded LC retention time of Cc1ccc(C(C)NC(=O)C(NC(=O)OC(C)C)C(C)C)cc1 (stereo not drawn) , please.
Result block: 4.86

Query block: Recorded LC retention time of COc1cccc(C(=O)NN(C(=O)c2cc(C)cc(C)c2)C(C)(C)C)c1C [Methoxyfenozide] , please.
Result block: 5.09

Query block: Recorded LC retention time of CCOC1Oc2ccc(OS(C)(=O)=O)cc2C1(C)C (stereo not drawn) [Ethofumesate] , please.
Result block: 5.04

---

# assay-explanation: RP, Waters CORTECS UPLC C18, 100 × 2.1 mm, 1.6 µm, 40 °C, 0.4 mL/min, estimated dead time 0.55 min; A: water + 0.1% formic acid, pH 3; B: acetonitrile + 0.1% formic acid, pH 3; gradient (min/%B) 0/5 1.12/5 6.41/99.5 10.01/99.5
# test-context: stereoisomer not certain
Kindly supply the reported LC retention time values for the records listed here.
// note: answer is a bare numeric in min

Query block: Recorded LC retention time of `O=C(Nc1ccccc1-c1ccc(Cl)cc1)c1cccnc1Cl` , please.
Result block: 4.99

Query block: Recorded LC retention time of CCOP(=O)(NC(C)C)Oc1ccc(SC)c(C)c1 (stereo not drawn) , please.
Result block: 4.89

Query block: Recorded LC retention time of `OCCc1c[nH]c2ccccc12` , please.
Result block: 3.05

---

# assay-explanation: RP, Waters CORTECS UPLC C18, 100 × 2.1 mm, 1.6 µm, 40 °C, 0.4 mL/min, estimated dead time 0.55 min; A: water + 0.1% formic acid, pH 3; B: acetonitrile + 0.1% formic acid, pH 3; gradient (min/%B) 0/5 1.12/5 6.41/99.5 10.01/99.5
# test-context: stereoisomer not certain
# cutoff 4 min applies to LC retention time; >= gives Yes, < gives No

Query block: Given the entry `O=C(NC(=O)c1c(F)cccc1F)Nc1ccc(Cl)cc1` , answer whether its LC retention time meets or surpasses 4 min.
Result block: Yes

Query block: Given the entry `Cc1cc(C)nc(Nc2ccccc2)n1` , answer whether its LC retention time meets or surpasses 4 min.
Result block: Yes

Query block: Given the entry O=C(NCc1ncc(C(F)(F)F)cc1Cl)c1c(Cl)cccc1Cl [Fluopicolide] , answer whether its LC retention time meets or surpasses 4 min.
Result block: Yes

Query block: Given the entry Nc1nc2c(ncn2C2CC(O)C(CO)O2)c(=O)[nH]1 (stereo not drawn) , answer whether its LC retention time meets or surpasses 4 min.
Result block: No

Query block: Given the entry CC(C)(C)C(O)C(=Cc1ccc(Cl)cc1Cl)n1cncn1 (stereo not drawn) , answer whether its LC retention time meets or surpasses 4 min.
Result block: Yes

Query block: Given the entry CCc1ccc(C(=O)NN(C(=O)c2cc(C)cc(C)c2)C(C)(C)C)cc1 [Tebufenozide] , answer whether its LC retention time meets or surpasses 4 min.
Result block: Yes

Query block: Given the entry `CC1=C(C(=O)Nc2ccccc2)CCCO1` , answer whether its LC retention time meets or surpasses 4 min.
Result block: Yes

Query block: Given the entry CNC(=O)CSP(=O)(OC)OC [Omethoate] , answer whether its LC retention time meets or surpasses 4 min.
Result block: No

Query block: Given the entry `C#CCN1C(=O)COc2cc(F)c(N3C(=O)C4=C(CCCC4)C3=O)cc21` , answer whether its LC retention time meets or surpasses 4 min.
Result block: Yes

Query block: Given the entry `CCOC(=O)NCCOc1ccc(Oc2ccccc2)cc1` , answer whether its LC retention time meets or surpasses 4 min.
Result block: Yes

Query block: Given the entry CC(CC(=O)O)C1CCC2C3CCC4CC(O)CCC4(C)C3CC(O)C12C (stereo not drawn) , answer whether its LC retention time meets or surpasses 4 min.
Result block: Yes

Query block: Given the entry `O=C(O)c1cc(O)c(O)c(O)c1` , answer whether its LC retention time meets or surpasses 4 min.
Result block: No

Query block: Given the entry `CC=C(C)C(=O)NCC(=O)O` , answer whether its LC retention time meets or surpasses 4 min.
Result block: No

Query block: Given the entry Cc1cc(C(F)(C(F)(F)F)C(F)(F)F)ccc1NC(=O)c1cccc(I)c1C(=O)NC(C)(C)CS(C)(=O)=O [Flubendiamide] , answer whether its LC retention time meets or surpasses 4 min.
Result block: Yes

Query block: Given the entry N#CC(CCc1ccc(Cl)cc1)(Cn1cncn1)c1ccccc1 (stereo not drawn) , answer whether its LC retention time meets or surpasses 4 min.
Result block: Yes

Query block: Given the entry CC(C1CC1)C(O)(Cn1cncn1)c1ccc(Cl)cc1 (stereo not drawn) , answer whether its LC retention time meets or surpasses 4 min.
Result block: Yes

Query block: Given the entry `CN(C)C(=O)Nc1ccccc1` , answer whether its LC retention time meets or surpasses 4 min.
Result block: No

Query block: Given the entry Nc1ccccc1C(=O)CC(N)C(=O)O (stereo not drawn) , answer whether its LC retention time meets or surpasses 4 min.
Result block: No

Query block: Given the entry CCCCCCCCCCCC=CC(=O)OC(CC(=O)[O-])C[N+](C)(C)C [trans-2-Tetradecenoyl-L-carnitine] , answer whether its LC retention time meets or surpasses 4 min.
Result block: Yes

Query block: Given the entry `CCCCCCCCCCCCCCCCCC[n+]1cccc(S(=O)(=O)[O-])c1` , answer whether its LC retention time meets or surpasses 4 min.
Result block: Yes

Query block: Given the entry `O=c1[nH]c(=O)c2[nH]cnc2[nH]1` , answer whether its LC retention time meets or surpasses 4 min.
Result block: No

Query block: Given the entry CCCC1COC(Cn2cncn2)(c2ccc(Cl)cc2Cl)O1 (stereo not drawn) , answer whether its LC retention time meets or surpasses 4 min.
Result block: Yes

Query block: Given the entry O=c1[nH]c(=O)c2[nH]c(=O)[nH]c2[nH]1 [URATE] , answer whether its LC retention time meets or surpasses 4 min.
Result block: No

Query block: Given the entry `CNC(=O)N(C)c1nnc(C(C)(C)C)s1` , answer whether its LC retention time meets or surpasses 4 min.
Result block: No

Query block: Given the entry CC(CCC(=O)NCCS(=O)(=O)O)C1CCC2C3C(O)CC4CC(O)CCC4(C)C3CCC12C (stereo not drawn) , answer whether its LC retention time meets or surpasses 4 min.
Result block: Yes

Query block: Given the entry `COCC(=O)N(c1c(C)cccc1C)N1CCOC1=O` , answer whether its LC retention time meets or surpasses 4 min.
Result block: No

Query block: Given the entry `Cc1cccc(C)c1N(Cn1cccn1)C(=O)CCl` , answer whether its LC retention time meets or surpasses 4 min.
Result block: Yes
